Reported values of composite z-score for individual entries
ASSAY NAME: COS7 lysate on small-molecule microarray, probe aHis, 635 nm (AID 1123);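 also: z-score combines 667nm fluorescence intensity with signal-to-noise per printed compound spot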
PARTICULARS: COS7 cell lysate, fluorescence, higher = more signal
The answer should be a number; do not append a unit.

Check out these entries, answers already filled in.
COMPOUND: C=C(/C(=C/C[C@@H](OC(C)=O)c1cccc(OCCO)c1)c1cc(C(=O)OC)ccc1OC)C(C)C
composite z-score: 0.206
//
COMPOUND: COc1ccc([Si](C)(C)[C@@H]2[C@@H](CCn3cc([C@H](O)c4ccccc4)nn3)O[C@]3(C(=O)N(Cc4ccc(N5CCC5=O)cc4)c4ccccc43)[C@H]2C)cc1
composite z-score: 0.121
//
COMPOUND: COC(=O)[C@@]1(Cc2ccc(OC)cc2)[C@@H]2C(=CC(=O)[C@H]2CC(=O)C(=O)N(C)C)CN1C(=O)c1ccccc1
composite z-score: 2.47
//
COMPOUND: CCCCN1CC=CC23O[C@@H]4/C=C\CCC(C)OC(=O)C4[C@H]2C(=O)N(C(CO)C(C)C)[C@@H]3C1=O (stereo partly specified)
composite z-score: -0.407
//
COMPOUND: COc1cc2c(cc1OC)CN(C(=O)[C@@H]1[C@H]3C(=O)O[C@H](c4ccccc4)[C@H](c4ccccc4)N3[C@H](c3ccc(OCCO)cc3)[C@@]13C(=O)Nc1ccc(C#CC4(O)CCCCCC4)cc13)CC2
composite z-score: 2.03

Turning now to a further compound:
INPUT: What measured composite z-score goes with COCCOC(=O)N1C(=O)[C@@]2(c3cc(C#Cc4ccc(OC)cc4)ccc31)[C@H](C(=O)Nc1nc3ccccc3s1)[C@H]1C(=O)O[C@H](c3ccccc3)[C@H](c3ccccc3)N1[C@@H]2c1ccc(OCCO)cc1 ?
OUTPUT: 0.757

====

ASSAY NAME: small-molecule microarray binders of probe aEGFR, primary screen, biochemical, biotinylated probe, 635/667 nm fluorescence (AID 1097);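 also: probe is a biotinylated anti-EGFR antibody binding compounds printed on slides; score combines fluorescence near 667 nm and signal to noise of each spot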
PARTICULARS: higher = more signal
// reported composite z-score for each item listed
API note: the answer field is a bare number with no unit suffix.

COMPOUND: NC(N)=NCCCn1cc(CNC(=O)[C@@H](N)Cc2ccccc2)nn1
composite z-score: 0.0221

COMPOUND: CN1C(=O)C2C=CC(C(O)c3cccc(O)c3)N(Nc3ccccc3)C2C1=O (stereo unspecified)
composite z-score: -0.0251

INPUT: Consider the compound COc1ccc([Si](C)(C)[C@@H]2[C@@H](CC(=O)N3Cc4ccccc4C[C@H]3CO)O[C@]3(C(=O)N(C)c4ccccc43)[C@H]2C)cc1 and give its measured composite z-score.
OUTPUT: -0.0052

INPUT: Also, CC1CC/C=C\[C@H]2OC34C=CCN(c5ccc(Cl)cc5)C(=O)[C@H]3N(CCCCCO)C(=O)[C@]4(C)C2C(=O)O1 (stereo partly specified) please.
OUTPUT: -0.302

INPUT: Again, but for CCCC[C@@H]1C[C@H]1[C@@H](NC(=O)Cc1ccccc1)c1ccc(-c2ccccc2)cc1
OUTPUT: -0.125

INPUT: And then O=C1C=C(c2ccccc2)C(=O)c2ccc([C@H]3Oc4ccccc4S(=O)(=O)N4CCC[C@@H]34)cc21 , what is it?
OUTPUT: -0.119

INPUT: Now this one: Cc1ccc(S[C@]2(C(=O)NCC(F)(F)F)CC(=O)N(C3CCCCC3)[C@@H]2c2ccc(CO)cc2I)cc1
OUTPUT: 0.0516

INPUT: What do we get for CCOC(=O)C1=CC[C@@H](c2ccccc2C(F)(F)F)N(S(=O)(=O)c2ccc(C)cc2)[C@H]1c1ccc(C#N)cc1 ?
OUTPUT: -0.0061
